Source: ChEMBL document CHEMBL4373711

Could you please report measured viability at 48 h, 30 µM for the items listed next?
protocol-summary: Cytotoxicity against human A431 cells assessed as cell viability at 30 uM after 48 hrs by CellTiter 96 aqueous one solution assay relative to control
Assay type: cell-based, A-431
stated-conditions: read-out: Activity
Express the result in % but write the number alone.

Can you look up the measured viability at 48 h, 30 µM of "O=[N+]([O-])c1cc(CSc2nnc(-c3ccc(Cl)cc3)n2Cc2ccccc2)cc([N+](=O)[O-])c1" for me?
73

Can you look up the measured viability at 48 h, 30 µM of "COc1ccc(CSc2nnc(-c3cc([N+](=O)[O-])cc(C(F)(F)F)c3)n2Cc2ccccc2)cc1" for me?
74

Can you look up the measured viability at 48 h, 30 µM of "O=[N+]([O-])c1cc(CSc2nnc(-c3ccc(Cl)cc3)n2Cc2ccccc2)cc(C(F)(F)F)c1" for me?
73

Can you look up the measured viability at 48 h, 30 µM of "CSc1nnc(-c2cc([N+](=O)[O-])cc([N+](=O)[O-])c2)n1Cc1ccccc1" for me?
83

Can you look up the measured viability at 48 h, 30 µM of "O=[N+]([O-])c1cc(CSc2nnc(C3CCCCC3)n2Cc2ccccc2)cc(C(F)(F)F)c1" for me?
67

Can you look up the measured viability at 48 h, 30 µM of "O=[N+]([O-])c1cc(-c2nnc(SCc3ccccc3)n2Cc2ccccc2)cc([N+](=O)[O-])c1" for me?
111

Can you look up the measured viability at 48 h, 30 µM of "O=[N+]([O-])c1cc(CSc2nnc(-c3ccc(Br)cc3)n2Cc2ccccc2)cc([N+](=O)[O-])c1" for me?
93

Can you look up the measured viability at 48 h, 30 µM of "COc1ccc(CSc2nnc(-c3cc([N+](=O)[O-])cc([N+](=O)[O-])c3)n2Cc2ccccc2)cc1" for me?
92

Can you look up the measured viability at 48 h, 30 µM of "O=[N+]([O-])c1cc(-c2nnc(SCc3ccc(Br)cc3)n2Cc2ccccc2)cc([N+](=O)[O-])c1" for me?
110

Can you look up the measured viability at 48 h, 30 µM of "O=[N+]([O-])c1cc(-c2nnc(SCc3ccc(Cl)c(Cl)c3)n2Cc2ccccc2)cc(C(F)(F)F)c1" for me?
80

Can you look up the measured viability at 48 h, 30 µM of "O=[N+]([O-])c1cc(-c2nnc(SCc3ccccc3)n2Cc2ccccc2)cc(C(F)(F)F)c1" for me?
37

Can you look up the measured viability at 48 h, 30 µM of "O=[N+]([O-])c1cc(-c2nnc(SCc3ccc(Cl)c(Cl)c3)n2Cc2ccccc2)cc([N+](=O)[O-])c1" for me?
97

Can you look up the measured viability at 48 h, 30 µM of "O=[N+]([O-])c1cc(-c2nnc(SCc3ccc(Cl)cc3)n2Cc2ccccc2)cc(C(F)(F)F)c1" for me?
121

Can you look up the measured viability at 48 h, 30 µM of "O=[N+]([O-])c1cc(CSc2nnc(-c3ccccc3)n2-c2ccc(Cl)c(Cl)c2)cc([N+](=O)[O-])c1" for me?
136

Can you look up the measured viability at 48 h, 30 µM of "CCn1c(SCc2ccccc2)nnc1-c1cc([N+](=O)[O-])cc([N+](=O)[O-])c1" for me?
90

Can you look up the measured viability at 48 h, 30 µM of "O=[N+]([O-])c1cc(-c2nnc(SCc3ccc(Cl)cc3)n2Cc2ccccc2)cc([N+](=O)[O-])c1" for me?
95

Can you look up the measured viability at 48 h, 30 µM of "Cn1c(SCc2ccc(Cl)c(Cl)c2)nnc1-c1cc([N+](=O)[O-])cc([N+](=O)[O-])c1" for me?
92

Can you look up the measured viability at 48 h, 30 µM of "CCCCCCCCSc1nnc(-c2cc([N+](=O)[O-])cc([N+](=O)[O-])c2)n1Cc1ccccc1" for me?
131

###

protocol-summary: Selectivity index, ratio of IC50 for human A431 cells to MIC>99 for antimycobacterial activity against Mycobacterium kansasii 6509/96 after 14 days
Format: toxicity
stated-conditions: read-out: Selectivity Index
recorded-endpoint: selectivity ratio at 336 h

Can you look up the measured selectivity ratio at 336 h of "O=[N+]([O-])c1cc(-c2nnc(SCc3ccccc3)n2Cc2ccccc2)cc(C(F)(F)F)c1" for me?
> 100

###

Could you please report measured log10(MIC99) for the items listed next?
System: Mycobacterium kansasii
protocol-summary: Antimycobacterial activity against Mycobacterium kansasii CNCTC My 235/80 after 14 days
Assay type: functional
stated-conditions: CNCTC My 235/80, 336 h
Please be aware that the numbers have been log10-transformed from MIC99 in µM.

Can you look up the measured log10(MIC99) of "Cn1c(SCc2ccc(Cl)cc2)nnc1-c1cc([N+](=O)[O-])cc([N+](=O)[O-])c1" for me?
-0.30

Can you look up the measured log10(MIC99) of "CCn1c(SCc2cc([N+](=O)[O-])cc([N+](=O)[O-])c2)nnc1-c1ccccc1" for me?
0.30

Can you look up the measured log10(MIC99) of "O=[N+]([O-])c1cc(Cn2c(SCc3ccc(Cl)cc3)nnc2-c2ccccc2)cc([N+](=O)[O-])c1" for me?
0.90

Can you look up the measured log10(MIC99) of "Cn1c(SCc2cc([N+](=O)[O-])cc([N+](=O)[O-])c2)nnc1-c1ccccc1" for me?
0.90

Can you look up the measured log10(MIC99) of "CCCCCCCCCCCCn1c(SCc2ccccc2)nnc1-c1cc([N+](=O)[O-])cc([N+](=O)[O-])c1" for me?
0.60

Can you look up the measured log10(MIC99) of "O=[N+]([O-])c1cc(Cn2c(SCc3ccc(Cl)c(Cl)c3)nnc2-c2ccccc2)cc([N+](=O)[O-])c1" for me?
0.90

Can you look up the measured log10(MIC99) of "O=[N+]([O-])c1cc(CSc2nnc(-c3ccc(Cl)cc3)n2Cc2ccccc2)cc([N+](=O)[O-])c1" for me?
0.90

Can you look up the measured log10(MIC99) of "COc1ccc(Cn2c(SCc3cc([N+](=O)[O-])cc([N+](=O)[O-])c3)nnc2-c2ccccc2)cc1" for me?
0.30

Can you look up the measured log10(MIC99) of "O=[N+]([O-])c1cc(CSc2nnc(-c3ccc(Br)cc3)n2Cc2ccccc2)cc([N+](=O)[O-])c1" for me?
0.30

Can you look up the measured log10(MIC99) of "O=C(NNC(=S)NCc1ccc(Cl)cc1Cl)c1cc([N+](=O)[O-])cc([N+](=O)[O-])c1" for me?
1.20

Can you look up the measured log10(MIC99) of "O=[N+]([O-])c1cc(CSc2nnc(C3CCCCC3)n2Cc2ccccc2)cc([N+](=O)[O-])c1" for me?
0.60

Can you look up the measured log10(MIC99) of "O=[N+]([O-])c1cc(CSc2nnc(-c3ccccc3)n2-c2ccccc2)cc([N+](=O)[O-])c1" for me?
0.60

Can you look up the measured log10(MIC99) of "CSc1nnc(-c2cc([N+](=O)[O-])cc([N+](=O)[O-])c2)n1Cc1ccccc1" for me?
0.60

Can you look up the measured log10(MIC99) of "O=[N+]([O-])c1cc(CSc2nnc(-c3ccc(O)cc3)n2Cc2ccccc2)cc([N+](=O)[O-])c1" for me?
1.20

###

measured-target: Decaprenylphosphoryl-beta-D-ribose oxidase (Mycobacterium tuberculosis (strain ATCC 25618 / H37Rv))
Sequence (whole entry): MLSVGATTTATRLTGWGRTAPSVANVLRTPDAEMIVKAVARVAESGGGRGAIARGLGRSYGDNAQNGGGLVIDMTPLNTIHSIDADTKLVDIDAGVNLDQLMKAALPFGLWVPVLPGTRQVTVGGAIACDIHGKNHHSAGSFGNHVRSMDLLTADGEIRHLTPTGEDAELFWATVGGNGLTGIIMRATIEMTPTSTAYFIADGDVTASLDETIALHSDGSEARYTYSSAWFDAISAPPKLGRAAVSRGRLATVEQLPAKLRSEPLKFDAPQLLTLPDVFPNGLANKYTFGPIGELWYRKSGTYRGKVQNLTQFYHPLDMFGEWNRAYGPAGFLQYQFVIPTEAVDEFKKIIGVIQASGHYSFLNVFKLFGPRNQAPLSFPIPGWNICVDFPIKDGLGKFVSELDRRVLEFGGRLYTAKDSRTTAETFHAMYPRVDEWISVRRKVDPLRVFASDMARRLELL
protocol-summary: Inhibition of DprE1 in Mycobacterium tuberculosis H37Rv assessed as accumulation of trehalose dimycolates at 100 times MIC measured after 24 hrs in presence of [14C]-acetate by TLC-based autoradiography
Active and inactive are the calls of the source. No cut-off for these calls is given here.
Your answer must be one of the following: active, inactive

Which result was noted for this molecule in the test: "COc1ccc(CSc2nnc(-c3cc([N+](=O)[O-])cc([N+](=O)[O-])c3)n2Cc2ccccc2)cc1"
active

Which result was noted for this molecule in the test: "CCCCCCn1c(SCc2cc([N+](=O)[O-])cc([N+](=O)[O-])c2)nnc1-c1ccccc1"
inactive

Which result was noted for this molecule in the test: "O=[N+]([O-])c1cc(-c2nnc(SCc3ccccc3)n2Cc2ccccc2)cc([N+](=O)[O-])c1"
active

Which result was noted for this molecule in the test: "COc1ccc(Cn2c(SCc3cc([N+](=O)[O-])cc([N+](=O)[O-])c3)nnc2-c2ccccc2)cc1"
inactive
